Molecular target: UniProt P42684
Sequence (P42684 whole entry): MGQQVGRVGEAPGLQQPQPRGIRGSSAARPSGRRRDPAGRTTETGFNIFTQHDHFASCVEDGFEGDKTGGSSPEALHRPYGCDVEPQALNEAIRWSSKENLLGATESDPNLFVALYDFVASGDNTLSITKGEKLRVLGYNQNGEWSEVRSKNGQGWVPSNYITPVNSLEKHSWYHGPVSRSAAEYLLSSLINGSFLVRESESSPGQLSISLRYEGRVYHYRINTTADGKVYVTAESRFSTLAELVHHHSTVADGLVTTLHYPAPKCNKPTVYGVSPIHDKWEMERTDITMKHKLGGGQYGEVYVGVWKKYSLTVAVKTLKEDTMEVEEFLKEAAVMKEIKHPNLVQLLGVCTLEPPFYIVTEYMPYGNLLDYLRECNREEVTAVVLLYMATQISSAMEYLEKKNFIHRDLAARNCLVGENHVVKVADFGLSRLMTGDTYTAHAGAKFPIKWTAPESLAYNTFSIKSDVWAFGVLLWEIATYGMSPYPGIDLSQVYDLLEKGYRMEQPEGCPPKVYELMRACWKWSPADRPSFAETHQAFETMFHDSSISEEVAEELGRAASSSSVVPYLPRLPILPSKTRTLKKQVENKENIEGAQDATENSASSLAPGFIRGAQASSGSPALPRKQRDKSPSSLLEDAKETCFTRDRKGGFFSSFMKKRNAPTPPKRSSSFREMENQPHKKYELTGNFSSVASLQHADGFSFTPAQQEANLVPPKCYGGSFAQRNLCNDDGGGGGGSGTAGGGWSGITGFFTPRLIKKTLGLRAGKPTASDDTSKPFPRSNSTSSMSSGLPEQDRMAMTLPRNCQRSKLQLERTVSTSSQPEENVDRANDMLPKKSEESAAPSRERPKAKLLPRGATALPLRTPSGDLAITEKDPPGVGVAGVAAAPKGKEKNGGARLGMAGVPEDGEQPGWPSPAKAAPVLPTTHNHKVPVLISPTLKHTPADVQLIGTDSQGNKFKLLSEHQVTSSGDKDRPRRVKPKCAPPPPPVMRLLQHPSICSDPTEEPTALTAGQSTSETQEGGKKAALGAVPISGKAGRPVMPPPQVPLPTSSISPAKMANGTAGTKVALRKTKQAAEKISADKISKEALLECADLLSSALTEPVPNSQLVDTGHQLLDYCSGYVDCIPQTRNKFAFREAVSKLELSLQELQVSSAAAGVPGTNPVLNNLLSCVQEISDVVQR
The source made the active and inactive calls.
Parameter call: string, one of active, inactive

Answered examples (8):
>>> label("O=c1[nH]ccc2cc(OC3CCNCC3)ccc12 [SAR-407899 FREE BASE]")
"inactive"
>>> label("CNC(=O)c1cc(Oc2ccc(NC(=O)Nc3cc(C(C)(C)C)nn3-c3ccc4ncccc4c3)c(F)c2)ccn1")
"active"
>>> label("O=C(Cc1ccc(-c2ccc(OCCN3CCOCC3)cc2)cn1)NCc1ccccc1")
"inactive"
>>> label("Nc1ncnc2c1c(-c1cccc(OCc3ccccc3)c1)cn2[C@H]1C[C@@H](CN2CCC2)C1")
"inactive"
>>> label("CN(C[C@@H]1COCCO1)S(=O)(=O)Nc1ccc2ccc3ncc(-c4cnn(C)c4)cc3c(=O)c2c1")
"inactive"
>>> label("CCn1c(C(=O)N(C2CC2)C2CC2)cc2c3c(ncn3C)c(Nc3cc(C)n(C)n3)nc21")
"inactive"
>>> label("COc1cc2c(Nc3ccc(Cl)c(Cl)c3F)ncnc2cc1OC[C@@H]1C[C@@H]2CN(C)C[C@@H]2C1")
"active"
>>> label("Cc1cc(C(=O)NOCCO)c(Nc2ccc(I)cc2F)n(C)c1=O")
"inactive"

[in] Dear all, I need the recorded test outcome for `Cc1cccc(-c2nn3c(c2-c2ccnc4ccc(C(N)=O)cc24)CCC3)n1` , thank you.
[out] inactive

[in] One more compound: `Cn1ncc(Cl)c1-c1cc(C(=O)N[C@H](CN)Cc2ccc(F)c(F)c2)oc1Cl`
[out] inactive

[in] One more compound: `O=C(Nc1c[nH]nc1-c1nc2cc(CN3CCOCC3)ccc2[nH]1)NC1CC1`
[out] active

[in] One more compound: `Cc1csc(-c2nnc(Nc3ccc(Oc4ncccc4-c4ccnc(N)n4)cc3)c3ccccc23)c1`
[out] inactive

[in] One more compound: `Cn1cc(-c2cnc3ccc4ccc(CS(=O)(=O)NCc5ccccn5)cc4c(=O)c3c2)cn1`
[out] inactive

[in] One more compound: `NC(=O)Nc1cc(-c2cccc(F)c2)sc1C(=O)N[C@H]1CCCNC1`
[out] active

[in] One more compound: `C[C@@H](N)c1ccc(C(=O)Nc2ccnc3[nH]ccc23)cc1`
[out] inactive

[in] One more compound: `Cc1nc(NC(=O)N2CCC[C@H]2C(N)=O)sc1-c1ccnc(C(C)(C)C(F)(F)F)c1`
[out] inactive

[in] One more compound: `CN1C/C=C/CCOc2cccc(c2)-c2ccnc(n2)Nc2cccc(c2)C1`
[out] inactive
